assay: Cytotoxicity against human HuH7 cells after 3 days by Alamar blue assay
Type: cell-based, Huh-7
parameter measured: CC50 at 72 h (µM)
Enter your answer as a number in µM; do not include the unit.

Using the record for COc1ccc2c(c1)[C@@H]1C[C@]1(C(=O)N1CC34COCC3(CN(C)C4)C1)Cn1c-2c(C2CCCCC2)c2ccc(C(=O)NS(=O)(=O)C(C)C)cc21 (some centres not stated) , report its CC50 at 72 h.
14

Which measured CC50 at 72 h value corresponds to COc1ccc2c(c1)[C@@H]1C[C@]1(C(=O)N1CC34COCC3(CN(C(C)=O)C4)C1)Cn1c-2c(C2CCCCC2)c2ccc(C(=O)NS(=O)(=O)N(C)C)cc21 (some centres not stated) ?
24

---

Exercise: state measured log10 of IC50 for each of the molecules provided.
assay: Inhibition of HCV genotype 1b wild type NS5B polymerase using biotinylated oligo dT12 primer as substrate after 4 hrs in presence of [3H]UTP
Design: species or system Hepatitis C virus subtype 1b
Values reflect log10 of reported IC50 (nM).

Entry COc1ccc2c(c1)[C@@H]1C[C@]1(C(=O)N1[C@@H]3CC[C@H]1CN(C)C3)Cn1c-2c(C2CCCCC2)c2ccc(C(=O)NS(=O)(=O)N(C)C)cc21 : reported log10 of IC50 = ?
0.60

Tell me the measured log10 of IC50 of COc1ccc2c(c1)[C@@H]1C[C@]1(C(=O)N1CC34COCC3(CN(CC(F)(F)F)C4)C1)Cn1c-2c(C2CCCCC2)c2ccc(C(=O)NS(=O)(=O)C(C)C)cc21 (stereo not given in full) , please.
0.60

State the recorded log10 of IC50 for this entry: COc1ccc2c(c1)[C@@H]1C[C@]1(C(=O)N1CC34CCC3(CN(C)C4)C1)Cn1c-2c(C2CCCCC2)c2ccc(C(=O)NS(=O)(=O)C(C)C)cc21 (stereo not given in full)
0.60

Fill blank: measured log10 of IC50 of the molecule COC(=O)N1CC23COCC2(C1)CN(C(=O)[C@]12C[C@H]1c1cc(OC)ccc1-c1c(C4CCCCC4)c4ccc(C(=O)NS(=O)(=O)C(C)C)cc4n1C2)C3 (stereo not given in full) is ____.
1.36

Please give the measured log10 of IC50 for this molecule: COc1ccc2c(c1)[C@@H]1C[C@]1(C(=O)N1CC34CCC3(CN(C(=O)N3CCCC3)C4)C1)Cn1c-2c(C2CCCCC2)c2ccc(C(=O)NS(=O)(=O)C(C)C)cc21 (stereo not given in full)
0.60

Any idea what log10 of IC50 was measured for COc1ccc2c(c1)[C@@H]1C[C@]1(C(=O)N1CC34CNCC3(COC4)C1)Cn1c-2c(C2CCCCC2)c2ccc(C(=O)NS(=O)(=O)C(C)C)cc21 (stereo not given in full) ?
0.78

log10 of IC50 lookup needed for COc1ccc2c(c1)[C@@H]1C[C@]1(C(=O)N1CC34CCCC3(CN(C)C4)C1)Cn1c-2c(C2CCCCC2)c2ccc(C(=O)NS(=O)(=O)C(C)C)cc21 (stereo not given in full) , thanks.
0.48

# log10 of IC50 lookup, item COc1ccc2c(c1)[C@@H]1C[C@]1(C(=O)N1CC34COCC3(C1)CN(S(=O)(=O)C(C)C)C4)Cn1c-2c(C2CCCCC2)c2ccc(C(=O)NS(=O)(=O)N(C)C)cc21 (stereo not given in full)
0.30

Value lookup for log10 of IC50; key = COc1ccc2c(c1)[C@@H]1C[C@]1(C(=O)N1CC34CCC3(C1)CN(S(=O)(=O)C(C)C)C4)Cn1c-2c(C2CCCCC2)c2ccc(C(=O)NS(=O)(=O)N(C)C)cc21 (stereo not given in full)
0.48

Give its log10 of IC50 value. Item: COc1ccc2c(c1)[C@@H]1C[C@]1(C(=O)N1CC34CCC3(CN(C(=O)N(C(C)C)C(C)C)C4)C1)Cn1c-2c(C2CCCCC2)c2ccc(C(=O)NS(=O)(=O)N(C)C)cc21 (stereo not given in full)
0.85
